# Tested on: IL-12 activation of STAT4 in NK-92 cells
# assay.details: IL-12 activation of STAT4 in NK-92 cells using AphaLISA SureFire technology
# Format: cell-based
# condition.parameters: Homo sapiens, NK92; IL-12 activation of STAT4 in NK-92 cells, AlphaLISA SureFire; average IC50; read-out: IL12 pSTAT4 IC50
pIC50: −log10 of the molar value.
test.readout: pIC50

Sample answers from the record:
Cc1cc(C#N)ncc1Oc1cc(Nc2ccc(N3CCOC(C)(C)C3)nn2)c2ncn(C)c2n1; 6.86
Cc1cc(C#N)ncc1Oc1cc(Nc2ccc(C(=O)N3CC(O)(C4CC4)C3)cn2)c2ncn(C)c2n1; 6.72
COc1ccc(Nc2cc(Oc3cnc(C#N)cc3C)nc3c2ncn3C)nc1; 7.06

I. CCc1cc(C#N)ncc1Oc1cc(Nc2ccc(C(=O)N3CCOCC3)cn2)c2ncn(C)c2n1
II. CC(Oc1cc(Nc2cc(N)ncn2)c2ncn(C)c2n1)C1CC1 (stereo not drawn)
III. CC(C)C(Nc1cc(Nc2cc(N)ncn2)c2ncn(C)c2n1)C(F)(F)F (stereo not drawn)
Arrange the 3 molecules from largest to smallest pIC50. Sort the labels as requested; that list is your answer.
III, II, I
